Reference source: the supplement of paper PMC10567573

B1: DVL3 (parent)
chain: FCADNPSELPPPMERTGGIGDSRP

variants of: B1; assay: protein stability index of a GFP-peptide fusion (GPS, HEK-293T) (PSI 1-6); higher = more stable; conditions: c terminus: a fixed tail appended;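 further: lentivirally expressed fusions sorted by FACS into six bins by GFP to DsRed ratio, PSI derived from sequencing read proportions per bin multiplied by bin number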
Fulfilled means recorded protein stability index is 4 or above; Not fulfilled means it is below 4.

// below: answered variants
- sequence-variant: "E14W"
  assigned-category: "Not fulfilled"
- sequence-variant: "D21W"
  assigned-category: "Not fulfilled"
- sequence-variant: "I19E"
  assigned-category: "Fulfilled"
- sequence-variant: "S22R"
  assigned-category: "Fulfilled"
- sequence-variant: "G18E"
  assigned-category: "Fulfilled"
- sequence-variant: "P12F"
  assigned-category: "Not fulfilled"

Does protein stability index meet or surpass 4 for `D4K` ?
Not fulfilled

Also check `D21G`
Fulfilled

Next up: `P12Q`
Fulfilled
